# credit: ChEMBL document CHEMBL3853343

# assay: Stability in human liver microsomes assessed as parent compound remaining after 30 mins in presence or absence of NADPH
# Format: ADME, microsome
# test-parameters: read-out: Stability
Param label: returns YES when remaining at 0.5 h < 90%, returns NO otherwise, including exact equality.

> print(dat)
                                   molecule  assigned.label
1  Cc1nc(C)c(-c2csc(Nc3ccc(C(=O)N4C5CCC4CN(c4ncc(Cl)cn4)C5)cn3)n2)s1             YES
2  Cc1nc(C)c(-c2csc(Nc3ccc(C(=O)N4C5CCC4CN(c4ncc(C(F)(F)F)cn4)C5)cn3)n2)s1              NO
3  Cc1nc(C)c(-c2csc(Nc3ccc(C(=O)N4C5CNCC4COC5)cn3)n2)s1             YES
4  Cc1nc(C)c(-c2csc(Nc3ccc(C(=O)N4[C@@H]5CC[C@H]4CC(=NOCC(C)(C)O)C5)cn3)n2)s1             YES
5  Cc1nc(C)c(-c2csc(Nc3ccc(C(=O)N4C5CCC4CN(C4CCCCC4)C5)cn3)n2)s1             YES
6  COC(=O)N1CCN(C(=O)c2ccc(Nc3nc(-c4sc(C)nc4C)cs3)nc2)C(C(F)(F)F)C1 (stereo not drawn)             YES
7  COC(=O)N1CCN(C(=O)c2ccc(Nc3nc(-c4sc(C)nc4C)cs3)nc2)CC1              NO

###

# assay: Metabolic stability in guinea pig hepatocytes assessed as parent compound remaining after 1 hr
# Type: ADME, cell-based, Cavia porcellus, Hepatocyte
# test-parameters: read-out: Stability
readout-kind: remaining at 1 h (%)

> print(dat)
                      smiles.representation  recorded.value
1  Cc1nc(C)c(-c2csc(Nc3ccc(C(=O)N4C5CCC4CN(c4ncc(C(F)(F)F)cn4)C5)cn3)n2)s1              73

###

# measured-target: Transient receptor potential cation channel subfamily V member 4 (Rattus norvegicus, UniProt Q9ERZ8)
# Sequence (Q9ERZ8 whole entry): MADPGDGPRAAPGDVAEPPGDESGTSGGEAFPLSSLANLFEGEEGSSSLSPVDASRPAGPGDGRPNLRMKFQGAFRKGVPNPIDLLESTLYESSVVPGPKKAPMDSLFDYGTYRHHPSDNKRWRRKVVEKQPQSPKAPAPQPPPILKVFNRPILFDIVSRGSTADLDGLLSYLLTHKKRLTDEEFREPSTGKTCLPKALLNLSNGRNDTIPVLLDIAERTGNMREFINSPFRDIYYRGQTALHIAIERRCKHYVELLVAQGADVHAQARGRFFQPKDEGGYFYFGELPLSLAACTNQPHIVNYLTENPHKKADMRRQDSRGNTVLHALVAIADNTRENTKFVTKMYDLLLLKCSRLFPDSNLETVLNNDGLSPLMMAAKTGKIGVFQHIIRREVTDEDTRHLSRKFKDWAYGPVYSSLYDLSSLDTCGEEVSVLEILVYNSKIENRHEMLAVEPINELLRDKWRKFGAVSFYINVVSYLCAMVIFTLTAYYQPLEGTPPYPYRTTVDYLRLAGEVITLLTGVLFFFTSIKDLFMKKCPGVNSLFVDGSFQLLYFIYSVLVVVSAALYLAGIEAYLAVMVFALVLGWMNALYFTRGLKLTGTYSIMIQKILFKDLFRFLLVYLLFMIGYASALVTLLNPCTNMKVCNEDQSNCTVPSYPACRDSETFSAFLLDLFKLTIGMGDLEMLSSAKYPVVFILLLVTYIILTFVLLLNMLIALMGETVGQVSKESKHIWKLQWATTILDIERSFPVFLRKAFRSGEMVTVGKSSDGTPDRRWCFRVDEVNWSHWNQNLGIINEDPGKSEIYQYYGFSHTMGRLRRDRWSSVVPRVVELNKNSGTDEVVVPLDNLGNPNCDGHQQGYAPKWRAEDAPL
# assay: Antagonist activity at rat TRPV4 assessed as inhibition of 4alpha-PDD-induced activation
pIC50: −log10 of the molar value.
# Lookup of reported pIC50 keyed by entry
readout-kind: pIC50

> print(dat)
                                   compound  readout.kind  recorded.value
1  Cc1nc(C)c(-c2csc(Nc3ccc(C(=O)N4[C@@H]5CC[C@H]4C[C@@H](O)C5)cn3)n2)s1         pIC50            6.00
2  COC(=O)N1CCN(C(=O)c2ccc(Nc3nc(-c4sc(C)nc4C)cs3)nc2)C(C(F)(F)F)C1 (stereo not drawn)         pIC50            7.82
3  Cc1nc(C)c(-c2csc(Nc3ccc(C(=O)N4C5CNCC4COC5)cn3)n2)s1         pIC50            7.00

###

# assay: Tmax in rat at 1 mg/kg, po
# Type: ADME, organism-based
# test-parameters: in vivo
readout-kind: Tmax (h)

> print(dat)
                      smiles.representation  readout.kind  recorded.value
1  Cc1nc(C)c(-c2csc(Nc3ccc(C(=O)N4C5CCC4CN(c4ncc(C(F)(F)F)cn4)C5)cn3)n2)s1          Tmax               4
